Tested on: CCL17 secretion in peripheral human whole blood
Test: Human Whole Blood (HWB) CCL17 TR-FRET Assay (IL-13 stimulated CCL17 secretion)
Type: cell-based
Conditions: human whole blood, IL-13 stimulated, 48 hours
pIC50: −log10 of the molar value.
Metric: pIC50

Compound	System under test	Meas value
CCC(C)n1nc(C(=O)NCc2ccc(NC(=O)N(C)C)cc2)c2c1CCN(c1ccc(C(=O)N(C)C)cn1)C2 (single isomer, unassigned)	CCL17 secretion in peripheral human whole blood	7.07
CCn1nc(C(=O)NCc2ccc(NC(=O)N(C)C)cc2)c2c1CC(C(F)(F)F)N(c1ccc(C(=O)N(C)C)cn1)C2 (single isomer, unassigned) [Example 251]	CCL17 secretion in peripheral human whole blood	7.10

====

Molecular target: STAT6 (Homo sapiens, UniProt P42226)
Construct: stably transfected HaCaT keratinocyte cell line, which expresses NanoLuc luciferase reporter gene under the transcriptional control of the STAT6 responsive promoter; endogenous in cells; host or cells: HaCaT keratinocyte reporter cell line (stably transfected with a NanoLuc reporter)
Assay: STAT6 Reporter Luciferase Assay (IL-13 stimulated HaCaT keratinocyte NanoLuc reporter cells)
Type: cell-based
Conditions: IL-13 stimulated HaCaT STAT6 NanoLuc reporter cells; read-out: Reporter EC50
Metric: EC50 (nM)

                                   compound  meas_value
0  CC(C)c1nc(C(=O)NCc2ccc(NC(=O)N(C)C)cc2)c2n1[C@@H](C)CN(c1ccc(C(=O)N(C)C)cc1)C2 (racemic)           1

P: CC(C)n1nc(C(=O)NCc2ccc(NC(=O)N(C)C)cc2)c2c1CCN(c1ccc(C(=O)N3CC4(CC(=O)N(C)C4)C3)cn1)C2
Q: CC(C)n1nc(C(=O)NCc2ccc(-c3ncc[nH]3)cc2)c2c1[C@@H](C)CN(c1ccc(C(=O)N(C)C)cn1)C2
Given the listed records, identify the one among P and Q with higher EC50. Please indicate the selected item by its label.
P
(P: 1420 nM, Q: 1 nM)

====

Target: STAT6 (Homo sapiens, UniProt P42226)
Construct: stably transfected HaCaT keratinocyte cell line, which expresses NanoLuc luciferase reporter gene under the transcriptional control of the STAT6 responsive promoter; endogenous in cells; host or cells: HaCaT keratinocyte reporter cell line (stably transfected with a NanoLuc reporter)
Sequence (P42226 1-847): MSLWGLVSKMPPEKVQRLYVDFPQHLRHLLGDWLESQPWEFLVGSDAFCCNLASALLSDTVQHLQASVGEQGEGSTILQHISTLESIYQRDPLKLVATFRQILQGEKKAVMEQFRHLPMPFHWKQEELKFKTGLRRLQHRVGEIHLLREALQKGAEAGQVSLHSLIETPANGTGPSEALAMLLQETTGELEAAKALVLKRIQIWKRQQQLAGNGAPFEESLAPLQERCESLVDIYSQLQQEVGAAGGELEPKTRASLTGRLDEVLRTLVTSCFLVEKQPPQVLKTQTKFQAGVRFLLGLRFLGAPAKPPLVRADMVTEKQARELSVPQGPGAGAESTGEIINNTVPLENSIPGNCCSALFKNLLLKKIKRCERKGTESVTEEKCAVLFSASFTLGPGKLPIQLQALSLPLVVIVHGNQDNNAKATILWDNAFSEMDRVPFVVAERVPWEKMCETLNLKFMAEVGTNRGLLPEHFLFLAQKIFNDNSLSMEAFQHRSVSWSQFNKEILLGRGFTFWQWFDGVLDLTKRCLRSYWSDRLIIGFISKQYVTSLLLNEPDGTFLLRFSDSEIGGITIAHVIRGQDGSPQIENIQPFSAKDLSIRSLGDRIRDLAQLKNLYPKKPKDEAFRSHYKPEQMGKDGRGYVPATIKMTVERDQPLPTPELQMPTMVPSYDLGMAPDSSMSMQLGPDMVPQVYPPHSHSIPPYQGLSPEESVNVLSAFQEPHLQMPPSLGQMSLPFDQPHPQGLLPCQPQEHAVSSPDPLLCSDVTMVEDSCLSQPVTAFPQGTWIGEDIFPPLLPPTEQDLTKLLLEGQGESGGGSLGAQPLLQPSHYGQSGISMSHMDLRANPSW
Assay: STAT6 Reporter Luciferase Assay (IL-13 stimulated HaCaT keratinocyte NanoLuc reporter cells)
Format: cell-based
Conditions: IL-13 stimulated HaCaT STAT6 NanoLuc reporter cells; read-out: Reporter EC50
pEC50: −log10 of the molar value.
Metric: pEC50

>>> df
                                   compound  metric  meas_value
0  COC1CCN(C(=O)c2ccc(N3CCc4c(c(C(=O)NCc5ccc(NC(=O)N(C)C)cc5)nn4C(C)C)C3)nc2)CC1   pEC50        6.90
1  CC(C)n1nc(C(=O)NCc2ccc(NC(=O)N(C)C)cc2)c2c1CCN(c1ccc(C(=O)N3CCc4ncn(C)c4C3)cn1)C2   pEC50        6.80
2  CC(C)n1nc(C(=O)NCc2ccc(NC(=O)N(C)C)cc2)c2c1CCN(c1ccc(C(=O)N3CCCC3CO)cn1)C2 (racemic)   pEC50        6.27
3  CC(C)n1nc(C(=O)NCc2ccc(NC(=O)N(C)C)cc2)c2c1CCN(c1ccc(C(=O)N3Cc4cccc(C#N)c4C3)cn1)C2   pEC50        8.52
4  CNC(=O)c1ccc(CNC(=O)c2nn(C(C)C)c3c2CN(c2ccc(C(=O)N(C)C)cn2)[C@@H](C)C3)cc1   pEC50        7.57

1: CC(C)n1nc(C(=O)NCc2ccc(NC(=O)N3CCN(C)CC3)cc2)c2c1[C@@H](C)CN(c1ccc(-n3ccccc3=O)cc1)C2
2: COc1ccc2c(n1)CN(C(=O)c1ccc(N3CCc4c(c(C(=O)NCc5ccc(NC(=O)N(C)C)cc5)nn4C(C)C)C3)nc1)CC2
3: CCN1CCN(C(=O)Nc2ccc(CNC(=O)c3nn(C(C)C)c4c3CN(c3ccc(C(=O)N(C)C)cc3)C[C@@H]4C)cc2)CC1
4: CC(C)n1nc(C(=O)NCc2ccc(NC(=O)N(C)C)cc2)c2c1CCN(c1ccc(C(=O)N3CC(=O)N(C)[C@H](C)C3)cn1)C2
5: CC(C)n1nc(C(=O)NCc2ccc(NC(=O)N(C)C)cc2)c2c1CCN(c1ccc(C(=O)N3Cc4cn(C)nc4C3)cn1)C2
Endpoint returns the given compounds ordered by ascending pEC50. List the labels according to the requested ordering.
4, 2, 5, 1, 3

I: C[C@@H]1CN(c2ccc(C(=O)N(C)C)cn2)Cc2c(C(=O)NCc3ccc(NC(=O)N(C)C)cc3)nn(CC(F)(F)F)c21 (single isomer, unassigned)
II: CC(C)n1nc(C(=O)NCc2ccc(NC(=O)N(C)C)cc2)c2c1CCN(c1ccc(C(=O)N3CCn4ncnc4C3)cn1)C2
III: Cc1nnn2c1CN(C(=O)c1ccc(N3CCc4c(c(C(=O)NCc5ccc(NC(=O)N(C)C)cc5)nn4C(C)C)C3)nc1)CC2
Order the records by pEC50, with each subsequent value no larger than the one before. List the labels according to the requested ordering.
I, II, III
(I: 7.96, II: 7.14, III: 6.51)

====

Molecular target: STAT6 (Homo sapiens)
Construct: stably transfected HaCaT keratinocyte cell line, which expresses NanoLuc luciferase reporter gene under the transcriptional control of the STAT6 responsive promoter; endogenous in cells; host or cells: HaCaT keratinocyte reporter cell line (stably transfected with a NanoLuc reporter)
Test: STAT6 Reporter Luciferase Assay (IL-13 stimulated HaCaT keratinocyte NanoLuc reporter cells)
Assay type: cell-based
Details: STAT6 NanoLuc luciferase reporter, IL-13 stimulated HaCaT keratinocyte cells; read-out: Reporter EC50
pEC50: −log10 of the molar value.
Metric: pEC50

>>> df
                                   compound     system_under_test  meas_value
0  CN(C)C(=O)Nc1ccc(CNC(=O)c2nn(C)c3c2[C@H]2CCC[C@@H](C3)N2c2ccc(C(=O)N(C)C)cn2)cc1 (racemic)  STAT6 (Homo sapiens)        8.05

A: COCC(C)n1nc(C(=O)NCc2ccc(NC(=O)N(C)C)cc2)c2c1CCN(c1ccc(C(=O)N(C)C)cn1)C2 (racemic)
B: CC(C)n1nc(C(=O)NCc2ccc(NC(=O)N3CCN(C)CC3)cc2)c2c1CCN(c1ccc(C(=O)N(C)C)cn1)C2
Given the listed records, identify the one among A and B with higher pEC50. Please indicate the selected item by its label.
B
(B: 8.10, A: 7.70)

====

Biological target: STAT6 (Homo sapiens, UniProt P42226)
Construct: stably transfected HaCaT keratinocyte cell line, which expresses NanoLuc luciferase reporter gene under the transcriptional control of the STAT6 responsive promoter; endogenous in cells; host or cells: HaCaT keratinocyte reporter cell line (stably transfected with a NanoLuc reporter)
Assay: STAT6 Reporter Luciferase Assay (IL-13 stimulated HaCaT keratinocyte NanoLuc reporter cells)
Format: cell-based
Conditions: IL-13 stimulated HaCaT STAT6 NanoLuc reporter cells; read-out: Reporter EC50
Metric: EC50 (nM)

Worked set:
Molecule	EC50 (nM)
CC(C)n1nc(C(=O)NCc2ccc(NC(=O)N(C)C)nc2)c2c1[C@@H](C)CN(c1ccc(C(=O)N(C)C)cn1)C2	2
CC(C)n1nc(C(=O)NCc2ccc(NC(=O)N(C)C)cc2)c2c1CCN(c1ccc(C(=O)N3CCn4cnnc4C3)cn1)C2	538
Cc1c2c(nn1C)CCN(C(=O)c1ccc(N3CCc4c(c(C(=O)NCc5ccc(NC(=O)N(C)C)cc5)nn4C(C)C)C3)nc1)C2	33

A: CCC(C)n1nc(C(=O)NCc2ccc(NC(=O)N(C)C)cc2)c2c1[C@@H](C)CN(c1ccc(C(=O)N(C)C)cn1)C2 (single isomer, unassigned) [Example 319]
B: CC(CO)n1nc(C(=O)NCc2ccc(NC(=O)N(C)C)cc2)c2c1CCN(c1ccc(C(=O)N(C)C)cn1)C2 (single isomer, unassigned) [Example 359]
Given A and given B , which shows the smaller recorded EC50? Please indicate the selected item by its label.
A
(A: 1 nM, B: 358 nM)
